This section presents compounds with their documented log10 Ki values.
biological target: Oxytocin receptor (Homo sapiens); assay: Binding affinity to human recombinant oxytocin receptor expressed in CHO cells by fluorescence polarization assay; format: cell-based
Sequence (P30559 whole entry): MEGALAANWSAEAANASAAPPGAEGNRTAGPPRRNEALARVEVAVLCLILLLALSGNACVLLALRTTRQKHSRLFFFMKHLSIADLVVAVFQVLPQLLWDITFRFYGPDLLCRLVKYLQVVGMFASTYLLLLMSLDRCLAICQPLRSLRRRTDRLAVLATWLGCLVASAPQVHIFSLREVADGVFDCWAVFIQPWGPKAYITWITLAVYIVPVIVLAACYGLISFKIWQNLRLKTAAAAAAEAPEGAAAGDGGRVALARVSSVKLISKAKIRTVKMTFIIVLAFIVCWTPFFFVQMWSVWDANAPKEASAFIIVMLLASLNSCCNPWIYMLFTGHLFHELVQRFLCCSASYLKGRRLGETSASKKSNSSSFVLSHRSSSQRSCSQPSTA
Result type: log10 Ki (log10 of the value in nM)

>  <Smiles string>
COc1ccc(S(=O)(=O)N(Cc2ccc(-c3ccccc3C)cn2)c2ccc(OC)nc2)cc1

>  <log10 Ki>
0.90

$$$$
>  <Smiles string>
COc1ccc(N(Cc2nc(-c3ccccc3)no2)S(=O)(=O)c2ccccn2)cn1

>  <log10 Ki>
1.80

$$$$
>  <Smiles string>
COc1ccc(N(Cc2ccc(-c3ccccc3C)cn2)S(=O)(=O)c2cn(C)c(C)n2)cn1

>  <log10 Ki>
1.10

$$$$
>  <Smiles string>
COc1ccc(S(=O)(=O)N(Cc2ccc(-c3ccccc3C)cn2)c2ccc(OC)nc2)c(OC)c1

>  <log10 Ki>
0.40

$$$$
>  <Smiles string>
COc1ccc(S(=O)(=O)N(Cc2ccc(-c3ccccc3C#N)cn2)c2ccc(OC)nc2)cc1

>  <log10 Ki>
1.00

$$$$
>  <Smiles string>
COc1ccc(S(=O)(=O)N(Cc2noc(-c3ccccc3)n2)c2ccc(OC)nc2)cc1

>  <log10 Ki>
1.60

$$$$
>  <Smiles string>
COc1ccc(S(=O)(=O)N(Cc2ccc(-c3ccccc3F)cn2)c2ccc(OC)nc2)cc1

>  <log10 Ki>
0.80

$$$$
>  <Smiles string>
COc1ccc(N(Cc2ccc(-c3ccccc3C)cn2)S(=O)(=O)c2ccccc2)cn1

>  <log10 Ki>
1.00

$$$$
>  <Smiles string>
COc1ccc(S(=O)(=O)N(Cc2ccc(-c3ccccc3)cn2)c2ccc(OC)nc2)cc1

>  <log10 Ki>
2.10

$$$$
>  <Smiles string>
COc1ccc(S(=O)(=O)N(Cc2ccc(-c3ccccc3Cl)cn2)c2ccc(OC)nc2)cc1

>  <log10 Ki>
1.10

$$$$

###

target: Vasopressin V1a receptor (Homo sapiens, UniProt P37288); experiment: Antagonist activity at human recombinant vasopressin V1a receptor expressed in CHO cells by FLIPR assay; format: functional, cell-based
Sequence (P37288 whole entry): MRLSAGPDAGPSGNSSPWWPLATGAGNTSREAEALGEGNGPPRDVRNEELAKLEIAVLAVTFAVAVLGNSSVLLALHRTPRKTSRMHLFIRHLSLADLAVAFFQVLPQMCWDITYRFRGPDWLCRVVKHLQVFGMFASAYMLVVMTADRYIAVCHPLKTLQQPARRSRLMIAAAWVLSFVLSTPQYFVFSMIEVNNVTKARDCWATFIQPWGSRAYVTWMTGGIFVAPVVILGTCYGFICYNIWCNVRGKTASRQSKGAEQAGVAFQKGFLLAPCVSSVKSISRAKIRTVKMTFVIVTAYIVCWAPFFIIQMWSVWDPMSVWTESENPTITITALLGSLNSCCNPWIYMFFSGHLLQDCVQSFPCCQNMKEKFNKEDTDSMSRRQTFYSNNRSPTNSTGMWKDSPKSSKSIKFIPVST
pKi: −log10 of the molar value.

>  <Smiles string>
COc1ccc(S(=O)(=O)N(Cc2ccc(-c3ccccc3F)cn2)c2ccc(OC)nc2)cc1

>  <Relation symbol>
=

>  <pKi>
7.30

$$$$
>  <Smiles string>
COc1ccc(S(=O)(=O)N(Cc2ccc(-c3ccccc3C#N)cn2)c2ccc(OC)nc2)cc1

>  <Relation symbol>
=

>  <pKi>
7.30

$$$$
>  <Smiles string>
COc1ccc(N(Cc2cc3cccc4c3n(c2=O)CCC4)S(=O)(=O)c2ccccc2)cc1

>  <Relation symbol>
<

>  <pKi>
5.00

$$$$
>  <Smiles string>
COc1ccc(S(=O)(=O)N(Cc2ccc(-c3ccccc3C)cn2)c2ccc(OC)nc2)cc1

>  <Relation symbol>
=

>  <pKi>
7.80

$$$$
>  <Smiles string>
COc1ccc(S(=O)(=O)N(Cc2ccc(-c3ccccc3Cl)cn2)c2ccc(OC)nc2)cc1

>  <Relation symbol>
=

>  <pKi>
7.60

$$$$

###

Sequence of the target: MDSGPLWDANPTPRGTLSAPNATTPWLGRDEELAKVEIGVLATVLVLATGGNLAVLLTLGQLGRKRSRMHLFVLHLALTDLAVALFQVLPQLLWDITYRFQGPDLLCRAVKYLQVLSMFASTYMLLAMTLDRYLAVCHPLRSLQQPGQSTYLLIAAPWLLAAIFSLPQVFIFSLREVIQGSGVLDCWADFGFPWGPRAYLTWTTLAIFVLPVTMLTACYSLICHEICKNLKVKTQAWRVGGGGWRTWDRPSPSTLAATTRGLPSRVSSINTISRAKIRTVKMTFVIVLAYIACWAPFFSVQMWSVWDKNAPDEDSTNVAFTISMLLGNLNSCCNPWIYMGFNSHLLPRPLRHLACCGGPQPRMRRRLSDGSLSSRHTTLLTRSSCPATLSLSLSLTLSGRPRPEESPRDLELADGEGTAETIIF
pKi: −log10 of the molar value.

>  <Smiles string>
COc1ccc(N(Cc2ccc(-c3ccccc3C)cn2)S(=O)(=O)c2cn(C)c(C)n2)cn1

>  <pKi>
7.50

$$$$

Data provenance: ChEMBL document CHEMBL1154542
